- PROCEDURE_DETAILS: NCI Yeast Anticancer Drug Screen. Data for the cln2 rad14 strain (AID 165);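 also: 0% = growth equal to vehicle treated cultures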
- TEST_SETTINGS: S. cerevisiae cln2 rad14 strain, at 50.0 µM, active compounds read high
Compounds without any hit were thinned out: in the full panel of roughly 79,000, 15% have a hit.
Assign label 1 to entries whose growth inhibition meets or exceeds 80%; assign label 0 to the rest.

Request: Identify whether the reported growth inhibition of the following molecule is 80% or greater: `O=[N+]([O-])c1ccc([Se]CCBr)c([N+](=O)[O-])c1`
Result: label 0

Request: Identify whether the reported growth inhibition of the following molecule is 80% or greater: C/C(=N\O)C(CN(C)C)C(c1ccccc1)c1c(O)c2ccccc2oc1=O (centres undefined)
Result: label 0

Request: Identify whether the reported growth inhibition of the following molecule is 80% or greater: CC1(C)C(=O)C=CC2(C)C1CC(O)C1(C)C2CCC2(C)C(c3ccoc3)OC(=O)C3OC321 (centres undefined)
Result: label 0

Request: Identify whether the reported growth inhibition of the following molecule is 80% or greater: `O=C1C(Br)=CC2(C=C1Br)CCNc1c(O)c3c4c(c12)=NCCC=4C=N3`
Result: label 0

Request: Identify whether the reported growth inhibition of the following molecule is 80% or greater: `CCC[CH2][Sn]([F])([CH2]CCC)[O][Sn]([F])([CH2]CCC)[CH2]CCC`
Result: label 1

Request: Identify whether the reported growth inhibition of the following molecule is 80% or greater: `O=C(N/N=C/c1cc(Cl)cc(Cl)c1[O-])c1ccccc1O.O=C(N/N=C/c1cc(Cl)cc(Cl)c1[O-])c1ccccc1O.[Mn+2]`
Result: label 1

Request: Identify whether the reported growth inhibition of the following molecule is 80% or greater: `COP(=S)(OC)N(C)C(=O)Oc1cccc2ccccc12`
Result: label 0

###

The reader will find reported growth inhibition values listed item by item below.
- PROCEDURE_DETAILS: NCI Yeast Anticancer Drug Screen. Data for the bub3 strain (AID 167)
- TEST_SETTINGS: S. cerevisiae bub3 mutant strain, at 50.0 µM (retest, dose inferred, filed as 5.0), active compounds read high
The panel holds about 79,000 compounds, 15% with a hit somewhere; the sample as a whole holds those more often.
Respond with the bare value in %.

>  <COMPOUND>
CC12CCC(O)CC1=CCC1C2CCC2(C)C(NC(=O)C3CCCN3C(=O)CN(CCCl)CCCl)CCC12 (stereo not given)

>  <growth inhibition / %>
38

$$$$
>  <COMPOUND>
CCc1ccc2c(c1)N(CCCN(CCCl)CCCl)c1ccccc1S2

>  <growth inhibition / %>
94

$$$$
>  <COMPOUND>
CC(C)COP(=O)(OCC(C)C)C(=O)Nc1ccc(Cl)cc1

>  <growth inhibition / %>
58

$$$$
>  <COMPOUND>
CN(C)c1ccc(/C=C/c2cc[n+]3ccsc3n2)cc1

>  <growth inhibition / %>
90

$$$$
>  <COMPOUND>
[N-]=[N+]=NS(=O)(=O)c1cccc([N+](=O)[O-])c1

>  <growth inhibition / %>
100

$$$$
>  <COMPOUND>
[Ni+2].[SH2+]C([SH2+])=Nc1ccccc1.[SH2+]C([SH2+])=Nc1ccccc1.c1ccc(C[P+](c2ccccc2)(c2ccccc2)c2ccccc2)cc1

>  <growth inhibition / %>
85

$$$$

Request: Fill in: growth inhibition of `CN(C)CCCNc1ccnc2c(COC(=O)N(CCCl)CCCl)ccc([N+](=O)[O-])c12` is ___
Result: 42

Request: Fill in: growth inhibition of CCC(C)N1CN(c2ccccc2)C2(CCN(CCCC3(c4ccc(F)cc4)OCCO3)CC2)C1=O (stereo not given) is ___
Result: 94

Request: Fill in: growth inhibition of `N.N.N.N.N.N#N.[Cl-].[Os+7]` is ___
Result: 91

Request: Fill in: growth inhibition of C[C@]12CCC(=O)C=C1CC[C@@H]1C2CC[C@@]2(C)C1CC[C@@H]2OC(=O)C12OC1CCC2=O (stereo not given in full) is ___
Result: 96

###

- PROCEDURE_DETAILS: NCI Yeast Anticancer Drug Screen. Data for the cln2 rad14 strain (AID 165);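 also: 0% = growth equal to vehicle treated cultures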
- TEST_SETTINGS: S. cerevisiae cln2 rad14 strain, at 5.0 µM (retest, dose inferred, filed as 0.5), active compounds read high
Compounds without any hit were thinned out: in the full panel of roughly 79,000, 15% have a hit.
ENDPOINT_NAME: growth inhibition (%)
Respond with the bare value in %.

These solved cases illustrate the format of a correct answer.
>  <COMPOUND>
CCCCC(CC)CNP(=S)(NCC(CC)CCCC)NCC(CC)CCCC (stereo not given)

>  <growth inhibition [%]>
-2

$$$$
>  <COMPOUND>
O=P(Nc1cccc(Cl)c1)(Oc1ccccc1)N(CCCl)CCCl (stereo not given)

>  <growth inhibition [%]>
20

$$$$
>  <COMPOUND>
c1ccc(P(CC[As](c2ccccc2)c2ccccc2)CC[As](c2ccccc2)c2ccccc2)cc1

>  <growth inhibition [%]>
76

$$$$
>  <COMPOUND>
CCCCCCCC/C=C\CCCCCCCCN1CC(C(=O)[O][Pb]([CH2]C)([CH2]C)[CH2]C)CC1=O (stereo not given)

>  <growth inhibition [%]>
5

$$$$

# ---- query compound ----
Request: Fill in: growth inhibition of `CCCOc1ccc(/C=C/[N+](=O)[O-])cc1N` is ___
Result: 17

###

The reader will find reported growth inhibition values listed item by item below.
- PROCEDURE_DETAILS: NCI Yeast Anticancer Drug Screen. Data for the mec2-1 strain (AID 157)
- TEST_SETTINGS: S. cerevisiae mec2-1 strain, at 1.2 µM, active compounds read high
- Description: Growth inhibition of yeast strains with defined genetic alterations is measured as a screen for potential anti-cancer activity. Selected strains with alterations in DNA damage repair or cell cycle control were exposed to compounds and growth inhibition was measured relative to vehicle treated controls. The strain used in this assay is mec2-1
The panel holds about 79,000 compounds, 15% with a hit somewhere; the sample as a whole holds those more often.
Respond with the bare value in %.

>  <MOLECULE>
Nc1ccccc1C(=O)OCCc1ccccc1

>  <QUANTITY_UNIT>
%

>  <growth inhibition>
-8

$$$$
>  <MOLECULE>
O=C1C2CC(Cl)C(SSC3CC4C(=O)N(SC(Cl)(Cl)C(Cl)Cl)C(=O)C4CC3Cl)CC2C(=O)N1SC(Cl)(Cl)C(Cl)Cl (stereo unspecified)

>  <QUANTITY_UNIT>
%

>  <growth inhibition>
37

$$$$
>  <MOLECULE>
Oc1cccnc1[Se]

>  <QUANTITY_UNIT>
%

>  <growth inhibition>
-3

$$$$
>  <MOLECULE>
O=[N+]([O-])c1ccc(N2CCC(CCCC3CCN(c4ccc([N+](=O)[O-])cc4[N+](=O)[O-])CC3)CC2)c([N+](=O)[O-])c1

>  <QUANTITY_UNIT>
%

>  <growth inhibition>
-35

$$$$

Request: Fill in: growth inhibition of `CC[C@](O)(C(=O)O)c1cc2n(c(=O)c1CO)Cc1cc3ccccc3nc1-2` is ___
Result: 14

Request: Fill in: growth inhibition of COc1cccc2c1C(=O)c1c(O)c3c(c(O)c1C2=O)C[C@@](O)(C(C)=O)C[C@@H]3OC1CC(N)C(OC2CC(O)C(O)C(C)O2)C(C)O1 (stereo partly specified) is ___
Result: -25

###

- PROCEDURE_DETAILS: NCI Yeast Anticancer Drug Screen. Data for the mec2-1 strain (AID 157)
- TEST_SETTINGS: S. cerevisiae mec2-1 strain, at 100.0 µM, active compounds read high
- Experimental: Growth inhibition of yeast strains with defined genetic alterations is measured as a screen for potential anti-cancer activity. Selected strains with alterations in DNA damage repair or cell cycle control were exposed to compounds and growth inhibition was measured relative to vehicle treated controls. The strain used in this assay is mec2-1
The panel holds about 79,000 compounds, 15% with a hit somewhere; the sample as a whole holds those more often.
ENDPOINT_NAME: growth inhibition (%)
Respond with the bare value in %.

These solved cases illustrate the format of a correct answer.
>  <COMPOUND>
CC1CN1C1=C(Cl)C(=O)C(N2CC2C)=C(Cl)C1=O (stereo not given)

>  <growth inhibition (%)>
98

$$$$
>  <COMPOUND>
CCCCCCCCCCCCCCCCP(=O)(O)OP(=O)(O)OCC1OC(n2ccc(N)nc2=O)C(O)C1O (stereo not given)

>  <growth inhibition (%)>
-3

$$$$
>  <COMPOUND>
CS(=O)(=O)OCCN(CCOS(C)(=O)=O)c1ccc(C=O)cc1

>  <growth inhibition (%)>
90

$$$$
>  <COMPOUND>
C[C@]12CCc3nonc3C1CC[C@@H]1C2CC[C@]2(C)C(=O)CCC12 (stereo not given in full)

>  <growth inhibition (%)>
36

$$$$
>  <COMPOUND>
Oc1c(Br)cc(Br)cc1Br

>  <growth inhibition (%)>
86

$$$$

Request: Fill in: growth inhibition of OC(c1ccc(Br)cc1)C(Cl)(Cl)Cl (stereo not given) is ___
Result: 99

Request: Fill in: growth inhibition of `Nc1nc(-c2ccccc2)c(-c2ccccc2)[se]1` is ___
Result: 7

Request: Fill in: growth inhibition of `O=C1C=CC(=O)C1(Br)Br` is ___
Result: 99

Request: Fill in: growth inhibition of CC1=C[C@H]2O[C@@H]3C[C@H]4OC(=O)/C=C\C=C\C(C(C)O)OCC(O)C(C)CC(=O)OC[C@@]2(C[C@@H]1O)[C@]4(C)[C@@]31CO1 (stereo not given in full) is ___
Result: 97

Request: Fill in: growth inhibition of `COc1cc(O)c2c(O)c3c(c4c2c1[C@]1(C4)C(C)=CCCC1(C)C)[C@H](O)[C@@]1(O)CC(=O)C(C(N)=O)=C(O)[C@@]1(O)C3=O` is ___
Result: 94
